Tested on: ATP;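 further: ATP exposure 15 min at 22 °C before imaging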
ASSAY PROTOCOL: switch fluorescence ratio, 500 uM ATP over buffer (Cy3 cluster intensity, sum of 5 cycles each) (fold (ratio)); higher = stronger signal-on switching upon ATP binding; sequences stand for … in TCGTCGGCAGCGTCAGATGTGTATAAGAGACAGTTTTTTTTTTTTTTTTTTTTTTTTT…TC
ASSAY CONDITIONS: aptamer strand: ATP DNA aptamer (quencher-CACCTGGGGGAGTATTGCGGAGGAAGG + anchor), 100 nM annealed; ATP concentration: 500 uM
TEST READOUT: switch fluorescence ratio

1) GGGACGTTAG 1.09
2) ATCCATTCA 1.02
3) TCGGAAGTAT 0.963
4) GAGGGTCTCT 0.98
5) AATTTGTGGA 0.986
6) TTGGCGTTGG 0.987
7) CGGGGTGTGT 1.01
8) GGGTCTTGTG 0.989
9) GACGAAGTTT 1.32
10) GTTACGGGGG 1.02
11) CGGGTGTGTC 1.05
12) GGTATGGGGA 1
13) CAAGATTGTG 1.01
14) GCTGCCTAAA 0.981
15) CGCATGCTGG 1.02
16) CAGAAAAGCA 1.03
17) GAGTGCATTG 1.01
18) GGTAGTAATT 0.998
19) CATAATCTAG 1.03
20) GCATGCTGTC 0.983
21) CCTGGCATTT 2.2

###

Tested on: ATP;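 further: ATP exposure 15 min at 22 °C before imaging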
ASSAY PROTOCOL: switch fluorescence ratio, 500 uM ATP over buffer (Cy3 cluster intensity, sum of 5 cycles each) (fold (ratio)); higher = stronger signal-on switching upon ATP binding; sequences stand for … in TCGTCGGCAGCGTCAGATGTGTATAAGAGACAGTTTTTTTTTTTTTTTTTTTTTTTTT…TC
ASSAY CONDITIONS: aptamer strand: ATP DNA aptamer (quencher-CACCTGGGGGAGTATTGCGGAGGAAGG + anchor), 100 nM annealed; ATP concentration: 500 uM
A collection of sequences and their measured switch fluorescence ratio
TEST READOUT: switch fluorescence ratio

1. AGTTATGTTG 0.995
2. GTTTAAGAAA 0.998
3. CGTGCTCTAC 1.5
4. GGTTGAAGGG 1.01
5. ATAGTGGCGC 0.997
6. GGCAGGGGGA 1.01
7. CAATGATCAG 1.01
8. AAGGCGGGTA 1
9. GCGATTAGTT 0.971
10. TTTAGGATCC 0.983
11. CGTCTTTTAT 0.994
12. TGACCTGGCT 1.04
13. TCTTCAAGTT 0.988
14. TTTTAAGTGA 1.02
15. TGAGGCGGGG 0.964
16. CAGAGATTAG 0.996
17. GGGTGAGAGG 0.994
18. GGCAAAGGAC 1.08
19. TCGTTGGTGG 0.984
20. GGTCAGGGTT 0.954
21. AGAATGGGTT 1.03
22. TGTGTTGTTT 1
23. AGCCATGTGA 1.01
24. CAACATGATG 0.995
25. ACCGCGCGAC 2.49
26. GAGAAGCTAT 0.987
27. TTGTTCGACT 1.02
28. CCCGGCATCT 1.22
29. TTAGGTGCAA 1.17
30. AATCGATTTG 0.989
31. AGGGGGAGCA 0.97
32. TAGGTGGACT 1.01
33. AACGTGTGGG 0.996
34. GTTGGTTTTT 0.975
35. AATGTCATTT 1
36. TGTTGGGGTT 1.01
37. CGTTTTGGGC 1.04
38. GGGCAATTGC 1.01
39. GAGTGCTAAA 1.01
40. GCGTAAAATT 0.974
41. ATGAGATAGG 0.982
42. GGATTTAATG 0.952
43. GATAGATTTA 0.998
44. GGCATCGCCG 0.954
45. ACTGCCATCG 1.1
46. AGGGACCTTA 1.04
47. TCAGGGGTGG 1
48. TTGGGGTCTT 1.02
49. TTGGGCAACA 1.05
50. TGCGTGAGGG 1.04
51. AACGCGTGGG 1.01
52. TAGGGGTTCT 1.01
53. GAAAGTTCGC 1.02
54. CGTAACGTGG 0.994
55. GGAAAAGGCT 1.02
56. AGGGGAAGCC 1.02
57. CTACCTCCGA 3.16
58. GCTACATGGG 1.02
59. AATGAGTGGA 1.01
60. GATACACATG 1.04
61. GCGGGGGGGT 1.01
62. TTGGGGCTGG 1.01
63. CGGGGGAAAG 1.01
64. AAAGCTGGAG 1.03
65. TTGTGGGCGA 0.995
66. AAGGGTCTGG 0.986
67. CAGGAAATTG 1.02
68. AATTTAGGAG 1.01
69. AACTTTATGA 1.02
70. ATGTCAGGGA 0.994
71. GATAGTGTTG 0.992
72. GATTCGGTTG 0.99
73. GTGTGTCAGT 0.964
74. ATTACGGCAT 1.18
75. TTACTACGTA 1.04
76. TTGTAGGGGT 1.02
77. GTGTTAGGCG 0.981
78. ATTGGATCGA 1.01
79. ACCTTTAGTG 1.03
80. TCGTTGATTT 1.02
81. GCGATGGAAT 1.13
82. GGGAGGGGCG 1
83. TTGTTATATT 0.983
84. AATCGTTAGG 0.969
85. TTTATTGAGC 0.989
86. GCATGATATG 1.01

###

Test system: ATP;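 further: ATP exposure 15 min at 22 °C before imaging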
ASSAY PROTOCOL: switch fluorescence ratio, 500 uM ATP over buffer (Cy3 cluster intensity, sum of 5 cycles each) (fold (ratio)); higher = stronger signal-on switching upon ATP binding; sequences stand for … in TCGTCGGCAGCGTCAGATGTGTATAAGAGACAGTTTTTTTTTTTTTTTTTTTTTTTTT…TC
ASSAY CONDITIONS: aptamer strand: ATP DNA aptamer (quencher-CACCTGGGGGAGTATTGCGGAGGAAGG + anchor), 100 nM annealed; ATP concentration: 500 uM
A collection of sequences and their measured switch fluorescence ratio
TEST READOUT: switch fluorescence ratio

1. ATGCATGGGC 1.03
2. TTTGATATCC 1
3. GTCCACTGTT 0.996
4. GCCCTTTCGT 1.03
5. GGGCGGGGTG 1.03
6. GTTATTATAG 0.992
7. GTTTTTGGAC 0.982
8. TGGTAAATAT 1.01
9. GGCAGGAGGG 1.11
10. AGGGTAAATT 1.03
11. ATTGGTAGGC 1.03
12. TTTAGGGACT 1.02
13. AGAATTTCAT 1.01
14. CATTAAGTGT 0.971
15. TCGTTATGTA 0.992
16. TTTCTTCCAT 1.05
17. AGTATGTCGA 1.01
18. TATACTAGTT 1.04
19. GGACTACCGC 1.14
20. TGTTACCGG 1
21. CGTTTGGGGG 0.987
22. GGATCGGGGG 1.03
23. AGTATGATTT 0.98
24. TCACGTTTAG 1.03
25. TTTACGTAGT 1.03
26. TCTTACAATC 1.1
27. AGGGTCAGGG 1.01
28. TTTATTAGCA 0.968
29. ATATGTGGGA 1.02
30. ATTAAAGTTA 1.01
31. AGAGTATGGG 1.01
32. GGTCTGTGTG 0.984
33. TTTCATATGG 0.994
34. TAATATTTTA 0.987
35. AAAAATTCTG 1.02
36. AATGCATCTG 0.973
37. AAATGTTGAG 0.975
38. GGAACATATA 1.01
39. CGGAATAGTG 1.2
40. TTATTTAGCG 1.03
41. TCATGCCGGG 1.04
42. TGGTAGAAGG 0.954
43. TTTTGGTAAA 1

###

System: ATP;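 further: ATP exposure 15 min at 22 °C before imaging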
ASSAY PROTOCOL: switch fluorescence ratio, 500 uM ATP over buffer (Cy3 cluster intensity, sum of 5 cycles each) (fold (ratio)); higher = stronger signal-on switching upon ATP binding; sequences stand for … in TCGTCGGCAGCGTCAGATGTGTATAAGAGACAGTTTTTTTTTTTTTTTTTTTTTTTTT…TC
ASSAY CONDITIONS: aptamer strand: ATP DNA aptamer (quencher-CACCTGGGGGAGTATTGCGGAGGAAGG + anchor), 100 nM annealed; ATP concentration: 500 uM
Label rule, in plain words: switch fluorescence ratio of 1 and up is Y, under 1 is N.

1. TCCGTTGGCT Y
2. TATGTCATTT N
3. GAGATAGGGT Y
4. TCTTACAATA Y
